# Assayed system: human melanocortin 4 receptor (human, UniProt P32245 1-332)
# Sequence (P32245 whole entry): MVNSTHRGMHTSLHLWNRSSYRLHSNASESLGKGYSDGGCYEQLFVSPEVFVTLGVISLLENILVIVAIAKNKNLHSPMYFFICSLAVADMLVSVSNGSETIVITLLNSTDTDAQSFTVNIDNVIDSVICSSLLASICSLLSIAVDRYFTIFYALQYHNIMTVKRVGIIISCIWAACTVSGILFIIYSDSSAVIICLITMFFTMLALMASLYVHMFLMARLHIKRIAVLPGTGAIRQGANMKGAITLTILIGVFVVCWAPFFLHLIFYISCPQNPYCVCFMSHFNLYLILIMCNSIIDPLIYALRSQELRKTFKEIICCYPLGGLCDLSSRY
# Method notes: cell-based or functional assay
Positions of bridges follow the written chain, without caps; N, C: chain ends. Non-standard residues stand in square brackets, D forms with d. Phe(4-CN) = N#Cc1ccc(C[C@H](N)C(=O)O)cc1
Property measured: MC4R cAMP EC50 (nM)
Numbers only, in nM.

// cyclo(CAH[dF]R[Phe(4-CN)]CAKKKW) (disulfide 1-7; SMILES C[C@@H]1NC(=O)[C@@H]2CSSC[C@H](NC(=O)[C@H](Cc3ccc(C#N)cc3)NC(=O)[C@H](CCCNC(=N)N)NC(=O)[C@@H](Cc3ccccc3)NC(=O)[C@H](Cc3c[nH]cn3)NC1=O)C(=O)N[C@@H](C)C(=O)N[C@@H](CCCCN)C(=O)N[C@@H](CCCCN)C(=O)N[C@@H](CCCCN)C(=O)N[C@@H](Cc1c[nH]c3ccccc13)C(=O)N2, also called c[c[Cys-Ala-His-D-Phe-Arg-4-CN-Phe-Cys]-Ala-Lys-Lys-Lys-Trp]) [Chem. 65] : MC4R cAMP EC50 value = 0.42
